Target: UniProt P25099
Sequence (P25099 whole entry): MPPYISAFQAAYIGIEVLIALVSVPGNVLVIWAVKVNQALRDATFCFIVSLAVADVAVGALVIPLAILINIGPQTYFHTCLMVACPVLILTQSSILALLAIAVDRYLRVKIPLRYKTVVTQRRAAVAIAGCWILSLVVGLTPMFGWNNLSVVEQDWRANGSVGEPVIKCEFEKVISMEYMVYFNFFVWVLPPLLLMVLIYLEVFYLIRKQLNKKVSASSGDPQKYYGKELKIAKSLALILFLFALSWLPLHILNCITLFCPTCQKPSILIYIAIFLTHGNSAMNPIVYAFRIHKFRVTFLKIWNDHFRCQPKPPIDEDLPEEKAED
Assay: Displacement of [3H]DPCPX from adenosine A1 receptor in rat brain cortical membrane by 10 uM.
Assay type: cell membranes

{"smiles_entry": "O=C(Nc1ccccc1)Nc1ncnc2ccccc12", "unit_name": "%", "Displacement": 48}
{"smiles_entry": "COc1cccc(NC(=O)Nc2nc(-c3ccccc3)nc3ccccc23)c1", "unit_name": "%", "Displacement": 6.8}
{"smiles_entry": "O=C(Nc1ccccc1)Nc1nc(-c2ccccn2)nc2ccccc12", "unit_name": "%", "Displacement": 0}
{"smiles_entry": "COc1ccc(NC(=O)Nc2nc(-c3ccccc3)nc3ccccc23)cc1", "unit_name": "%", "Displacement": 30}
{"smiles_entry": "O=C(Nc1ccccc1)Nc1nc(-c2ccccc2)nc2ccccc12", "unit_name": "%", "Displacement": 36}
{"smiles_entry": "Cc1ccc(NC(=O)Nc2nc(-c3ccccc3)nc3ccccc23)cc1", "unit_name": "%", "Displacement": 5.8}
{"smiles_entry": "O=C(Nc1ccccc1)Nc1nccc2ccccc12", "unit_name": "%", "Displacement": 24}
{"smiles_entry": "O=C(Nc1ccccc1)Nc1nc(-c2ccco2)nc2ccccc12", "unit_name": "%", "Displacement": 27}
{"smiles_entry": "Cc1cc(C)nc(-c2nc(NC(=O)Nc3ccccc3)c3ccccc3n2)n1", "unit_name": "%", "Displacement": 10}
{"smiles_entry": "O=C(Nc1ccccc1)Nc1nc(-c2ccccn2)cc2ccccc12", "unit_name": "%", "Displacement": 21}
{"smiles_entry": "O=C(Nc1ccc(Cl)cc1)Nc1nc(-c2ccccc2)nc2ccccc12", "unit_name": "%", "Displacement": 26}
{"smiles_entry": "CC(C)(C)c1nc(NC(=O)Nc2ccccc2)c2ccccc2n1", "unit_name": "%", "Displacement": 13}
{"smiles_entry": "O=C(Nc1ccccc1)Nc1nc(N2CCCC2)nc2ccccc12", "unit_name": "%", "Displacement": 49}
{"smiles_entry": "O=C(Nc1ccccc1)Nc1nc(-c2ccccc2)cc2ccccc12", "unit_name": "%", "Displacement": 43}
{"smiles_entry": "Cc1ccccc1NC(=O)Nc1nc(-c2ccccc2)nc2ccccc12", "unit_name": "%", "Displacement": 64}
{"smiles_entry": "Cc1cccc(-c2nc(NC(=O)Nc3ccccc3)c3ccccc3n2)n1", "unit_name": "%", "Displacement": 23}
{"smiles_entry": "O=C(Nc1ccccc1Cl)Nc1nc(-c2ccccc2)nc2ccccc12", "unit_name": "%", "Displacement": 39}
{"smiles_entry": "O=C(Nc1ccc(Cl)c(Cl)c1)Nc1nc(-c2ccccc2)nc2ccccc12", "unit_name": "%", "Displacement": 3.4}
{"smiles_entry": "COc1ccccc1NC(=O)Nc1nc(-c2cccnc2)nc2ccccc12", "unit_name": "%", "Displacement": 52}
